# System: Pancreatic islet
# RUN_DESCRIPTION: Upregulation of […] mRNA expression in NMRI mouse pancreatic islets at 10^-8 M after 72 hrs by Taqman-based qRT-PCR analysis
# Type: functional, cell-based
Active and inactive are the calls of the source. The calls are words filed in the database; no cut-off is given here.
Pick from active, inactive when you respond.

Example cases with answers are listed next.
# SMILES_INPUT, GROUP
measured = [
    ("O=C(/C=C/c1ccc(O)c(O)c1)O[C@@H](C(=O)O)[C@@H](O)C(=O)O", "inactive"),
    ("O=C(/C=C/c1ccc(O)c(O)c1)O[C@@H](C(=O)O)[C@@H](OC(=O)/C=C/c1ccc(O)c(O)c1)C(=O)O", "inactive"),
]

Q: Answer briefly: the call reported for O=C(/C=C/c1ccc(O)c(O)c1)O[C@H](Cc1ccc(O)c(O)c1)C(=O)O in this assay.
Ans: inactive

Q: Follow-up item: O=C(O)/C=C/c1ccc(O)c(O)c1
Ans: active

Q: Follow-up item: O=c1cc(-c2ccc(O)cc2)oc2c([C@@H]3O[C@H](CO)[C@@H](O)[C@H](O)[C@H]3O)c(O)c([C@@H]3O[C@H](CO)[C@@H](O)[C@H](O)[C@H]3O)c(O)c12
Ans: inactive
